APPLIED_CONDITIONS: buffer; pH 7.4; 200.0 µM
Form field: solubility kinetic (one value per entry).
Numbers only; they are read as µg/mL.

COMPOUND: Cc1cccc2c1NC(=O)C2=Nc1ccc(Cl)cc1
solubility kinetic [µg/mL]: 4.7
--
COMPOUND: OC(COc1ccc(Cl)cc1)CN1CCN(c2ccccn2)CC1 (centres undefined)
solubility kinetic [µg/mL]: 33.8
--
COMPOUND: C=CCn1c(N)cc(=O)nc1SCC(=O)Nc1ccccc1C(N)=O
solubility kinetic [µg/mL]: 49.9

Let us move to another entry and its solubility kinetic.
Query string: Identify measured solubility kinetic associated with O=[N+]([O-])c1cccc(-c2noc(-c3ccco3)n2)c1
Result string: 1.7
